Target: UniProtKB P62937
Sequence (P62937 whole entry): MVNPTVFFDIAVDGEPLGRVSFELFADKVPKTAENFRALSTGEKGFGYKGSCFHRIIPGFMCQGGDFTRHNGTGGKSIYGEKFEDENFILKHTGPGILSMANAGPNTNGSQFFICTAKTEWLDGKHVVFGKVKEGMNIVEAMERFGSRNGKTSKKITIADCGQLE
Assay: Inhibitor binding to cyclophilin proteins by SPR, CypA;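 further: Single-cycle kinetics on a Biacore T200, compound injected at several concentrations for 1 min each at 50 µL/min, then 10 min dissociation, in HEPES pH 7.4 buffer with 3% DMSO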
Parameters: unit not given here
Conditions: 1:1 binding model
Starred links: 1 amine or outer side, 2 acyl side, 3 side chain; linkers in the order of their positions; H or OH if unused. Non-standard residues stand in square brackets, D forms with d. Residues, ends and D or L forms follow the SMILES beside them. X70 = C[C@H](CCCOC(=O)N1CCN(C)CC1)[C@@H](C(=O)[*:2])N(C)[*:1]; X39 = C[C@H](CN1CCC(C#N)CC1)[C@@H](C(=O)[*:2])N(C)[*:1]; X11 = CCN1CCN(C[C@H](C)[C@@H](C(=O)[*:2])N(C)[*:1])CC1; X9 = C[C@@H](CN1CCOCC1)[C@@H](C(=O)[*:2])N(C)[*:1]; MeBmt = C/C=C/C[C@@H](C)[C@@H](O)[C@H](NC)C(=O)O; NMeL = CN[C@@H](CC(C)C)C(=O)O; NMeV = CN[C@H](C(=O)O)C(C)C; dNMeA = CN[C@H](C)C(=O)O; Abu = CC[C@H](N)C(=O)O
Reported CypA Kd values follow for various compounds
parameter: CypA Kd

[[record]]
compound = "C/C=C/C[C@@H](C)[C@@H](O)[C@H]1C(=O)N[C@@H](CC)C(=O)N(C)[C@H](C)C(=O)N(C)[C@@H]([C@H](C)CCCOC(=O)N2CCN(C)CC2)C(=O)N[C@@H](C(C)C)C(=O)N(C)[C@@H](CC(C)C)C(=O)N[C@@H](C)C(=O)N[C@H](C)C(=O)N(C)[C@@H](CC(C)C)C(=O)N(C)[C@@H](CC(C)C)C(=O)N(C)[C@@H](C(C)C)C(=O)N1C [Compound 2.19.7] (cyclo(A[dA][NMeL][NMeL][NMeV][MeBmt][Abu][dNMeA][X70]V[NMeL]))"
parameter = "CypA Kd"
value_reported = 1.1

[[record]]
compound = "C/C=C/C[C@@H](C)[C@@H](O)[C@H]1C(=O)N[C@@H](CC)C(=O)N(C)[C@H](C)C(=O)N(C)[C@@H]([C@H](C)COCCOC(=O)N2CCN(C)CC2)C(=O)N[C@@H](C(C)C)C(=O)N(C)[C@@H](CC(C)C)C(=O)N[C@@H](C)C(=O)N[C@H](C)C(=O)N(C)[C@@H](CC(C)C)C(=O)N(C)[C@@H](CC(C)C)C(=O)N(C)[C@@H](C(C)C)C(=O)N1C (stereo in doubt) [Compound 2.9]"
parameter = "CypA Kd"
value_reported = 0.9

[[record]]
compound = "C/C=C/C[C@@H](C)[C@@H](O)[C@H]1C(=O)N[C@@H](CC)C(=O)N(C)[C@H](C)C(=O)N(C)[C@@H]([C@H](C)CN2CCC(C#N)CC2)C(=O)N[C@@H](C(C)C)C(=O)N(C)[C@@H](CC(C)C)C(=O)N[C@@H](C)C(=O)N[C@H](C)C(=O)N(C)[C@@H](CC(C)C)C(=O)N(C)[C@@H](CC(C)C)C(=O)N(C)[C@@H](C(C)C)C(=O)N1C [Compound 2.5.26] (cyclo(A[dA][NMeL][NMeL][NMeV][MeBmt][Abu][dNMeA][X39]V[NMeL]))"
parameter = "CypA Kd"
value_reported = 1.3

[[record]]
compound = "C/C=C/C[C@@H](C)[C@@H](O)[C@H]1C(=O)N[C@@H](CC)C(=O)N(C)[C@H](C)C(=O)N(C)[C@@H]([C@@H](C)CN2CCOCC2)C(=O)N[C@@H](C(C)C)C(=O)N(C)[C@@H](CC(C)C)C(=O)N[C@@H](C)C(=O)N[C@H](C)C(=O)N(C)[C@@H](CC(C)C)C(=O)N(C)[C@@H](CC(C)C)C(=O)N(C)[C@@H](C(C)C)C(=O)N1C [Compound 2.17.1] (cyclo(A[dA][NMeL][NMeL][NMeV][MeBmt][Abu][dNMeA][X9]V[NMeL]))"
parameter = "CypA Kd"
value_reported = 0.6

[[record]]
compound = "C/C=C/C[C@@H](C)[C@@H](O)[C@H]1C(=O)N[C@@H](CC)C(=O)N(C)[C@H](C)C(=O)N(C)[C@@H]([C@@H](C)CN2CCN(CC)CC2)C(=O)N[C@@H](C(C)C)C(=O)N(C)[C@@H](CC(C)C)C(=O)N[C@@H](C)C(=O)N[C@H](C)C(=O)N(C)[C@@H](CC(C)C)C(=O)N(C)[C@@H](CC(C)C)C(=O)N(C)[C@@H](C(C)C)C(=O)N1C [Compound 2.17.2] (cyclo(A[dA][NMeL][NMeL][NMeV][MeBmt][Abu][dNMeA][X11]V[NMeL]))"
parameter = "CypA Kd"
value_reported = 0.6


Data provenance is patent US9566312B2.
